# IC50 listing for each entry below
testTarget: UniProt P04818
Sequence (P04818 whole entry): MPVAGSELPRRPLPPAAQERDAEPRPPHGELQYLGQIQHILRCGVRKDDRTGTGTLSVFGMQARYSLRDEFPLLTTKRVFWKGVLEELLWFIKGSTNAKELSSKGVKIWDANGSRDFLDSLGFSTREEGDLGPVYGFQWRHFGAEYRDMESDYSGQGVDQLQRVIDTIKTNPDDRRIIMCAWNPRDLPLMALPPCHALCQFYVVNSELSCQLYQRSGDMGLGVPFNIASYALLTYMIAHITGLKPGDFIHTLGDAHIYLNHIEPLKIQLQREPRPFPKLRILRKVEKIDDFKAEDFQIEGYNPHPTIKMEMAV

- testSmiles: "CCc1nc(N)nc2[nH]cc(CCc3ccc(C(=O)N[C@@H](CCC(=O)O)C(=O)O)cc3)c12"
  testTarget: "UniProt P04818"
  IC50: "80 µM"
- testSmiles: "CCc1[nH]c(N)nc2nc(C)c(CCc3ccc(C(=O)N[C@@H](CCC(=O)O)C(=O)O)cc3)c1-2"
  testTarget: "UniProt P04818"
  IC50: "9 µM"

====

testTarget: Dihydrofolate reductase (Homo sapiens)
Sequence (P00374 whole entry): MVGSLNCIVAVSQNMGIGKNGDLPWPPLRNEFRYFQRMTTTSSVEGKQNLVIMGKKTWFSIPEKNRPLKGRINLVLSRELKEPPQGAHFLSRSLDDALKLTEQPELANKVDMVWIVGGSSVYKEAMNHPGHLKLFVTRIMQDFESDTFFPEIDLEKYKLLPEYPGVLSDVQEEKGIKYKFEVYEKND

- testSmiles: "Cc1nc(N)nc2[nH]cc(CCc3ccc(C(=O)N[C@@H](CCC(=O)O)C(=O)O)cc3)c12"
  unitDescriptor: "nM"
  IC50: 1200

// provenance: ChEMBL document CHEMBL1145967
